Please provide measured pKd for the entries that follow.
test-system: T1, hVEGF-A (human, UniProt P15692-4 27-191, limits assumed)
T1 construct: also called human VEGF-A; WT
protocol-summary: SPR
No end group written: not given here.
Numbers only, as −log10 of the molar value.

GCNIMLPYWGCGQSFECLAGCVCQYYQSCG (designed binder) [VEGF_CKP9.54.1.F8Y]; 9.11
GCQLMQPFWGCKQDSDCLAGCVCHWYQSCG (designed binder, also called E9) [VEGF_CKP9]; 5.30
GCNIMLPFWGCGRDFECLAGCVCQYYQSCG (designed binder) [VEGF_CKP9.54.90]; 9.40
GCNIMLPFWGCGQSFECLAGCVCQYYQSCG (designed binder) [VEGF_CKP9.54.1]; 8.66

Go through the items and report each one's pKd.
1. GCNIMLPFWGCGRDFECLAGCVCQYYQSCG (designed binder, cysteine pairing not given here; also: -Alkyn: alkyne modification, position not given here) [VEGF_CKP9.54.90-Alkyn]
2. GCNIMLPYWGCGRDFECLAGCVCQYYQSCG (designed binder) [VEGF_CKP9.54.90.F8Y]

Reply text:
1. 9.31
2. 9.40

Inquiry: Please look at this binder and report its pKd: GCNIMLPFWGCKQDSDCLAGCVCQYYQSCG (designed binder, also called EM54) [VEGF_CKP9.54]
Reply text: 7.36
